# maps each entry to its Kd
# Tgt: T1, human BCMA protein (human, UniProt Q02223 1-54, limits assumed)
# T1 sequence: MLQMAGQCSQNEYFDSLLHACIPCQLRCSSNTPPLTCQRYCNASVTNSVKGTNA
# Assay Procedure: affinity to human BCMA protein, method not stated
Give just the numeric value; nM need not be written.

Worked cases, answers included:
Q) Recorded Kd for BCMA targeting trispecific protein 01A03 (other, not shown: large carriers; small tags and cut ends, trispecific) VHH: EVQLVESGGGLVQPGRSLTLSCAASTNIFSISPGGWYRQAPGKQRELVAAIHGSSTLYADSVKGRFTISRDNAKNSIYLQMNSLRPEDTALYYCNKVPWGDYHPRNVYWGQGTQVTVSS , please?
A) 30.8

Q) Recorded Kd for BCMA targeting trispecific protein 01B06 (other, trispecific; not shown: the C-terminal 6xHis tag follows those missing domains and is left out) VHH: EVQLVESGGGLVQPGRSLTLSCAASTNIFSISPMGWYRQAPGKQRELVAAIHGDSTLYADSVKGRFTISRDNAKNSIYLQMNSLRPEDTALYYCNKVPWGEYHPRNVYWGQGTQVTVSS , please?
A) 9.1

Q) Recorded Kd for BCMA targeting trispecific protein 02H11 (other, trispecific; not shown: the C-terminal 6xHis tag follows those domains and is left out) VHH: EVQLVESGGGLVQPGRSLTLSCAASTNITSISPMGWYRQAPGKQRELVAAIHGESTLYADSVKGRFTISRDNAKNSIYLQMNSLRPEDTALYYCNKVPWGDYHPRNVYWGQGTQVTVSS , please?
A) 27.5

More entries:
Q) Recorded Kd for BCMA targeting trispecific protein 01H01 (other, not shown: large carriers; small tags and cut ends, trispecific) VHH: EVQLVESGGGLVQPGRSLTLSCAASTNIGSISPMGWYRQAPGKQRELVAAIHGQSTLYADSVKGRFTISRDNAKNSIYLQMNSLRPEDTALYYCNKVPWGDYHPQNVYWGQGTQVTVSS , please?
A) 35.9

Q) Recorded Kd for BCMA targeting trispecific protein 01E03 (other, not shown: large carriers; small tags and cut ends, trispecific) VHH: EVQLVESGGGLVQPGRSLTLSCAASTNITSISPMGWYRQAPGKQRELVAAIHGDSTLYADSVKGRFTISRDNAKNSIYLQMNSLRPEDTALYYCNKVPWGDYHPGNVYWGQGTQVTVSS , please?
A) 6.36

Q) Recorded Kd for BCMA targeting trispecific protein 01E08 (other, not shown: large carriers; small tags and cut ends, trispecific) VHH: EVQLVESGGGLVQPGRSLTLSCAASTNIFSQSPMGWYRQAPGKQRELVAAIHGDSTLYADSVKGRFTISRDNAKNSIYLQMNSLRPEDTALYYCNKVPWGDYHPGNVCWGQGTQVTVSS , please?
A) 5.56

Q) Recorded Kd for BCMA targeting trispecific protein 02F12 (other, not shown: large carriers; small tags and cut ends, trispecific) VHH: EVQLVESGGGLVQPGRSLTLSCAASTNIESISPMGWYRQAPGKQRELVAAIHGTSTLYADSVKGRFTISRDNAKNSIYLQMNSLRPEDTALYYCNKVPWGDYHPGNVYWGQGTQVTVSS , please?
A) 7.76

Q) Recorded Kd for BCMA targeting trispecific protein 02D06 (other, not shown: large carriers; small tags and cut ends, trispecific) VHH: EVQLVESGGGLVQPGRSLTLSCAASTNISSISPMGWYRQAPGKQRELVAAIHGFSTVYADSVKGRFTISRDNAKNSIYLQMNSLRPEDTALYYCNKVPWGRYHPRNVYWGQGTQVTVSS , please?
A) 23.3

Values from patent US20240327534A1
